- study system: T1, human CD73 expressed at the cell surface (human, UniProt P21589 27-549)
- T1 construct: GPI-anchored dimer on cells; also called huCD73; cellular CD73
- T1 sequence: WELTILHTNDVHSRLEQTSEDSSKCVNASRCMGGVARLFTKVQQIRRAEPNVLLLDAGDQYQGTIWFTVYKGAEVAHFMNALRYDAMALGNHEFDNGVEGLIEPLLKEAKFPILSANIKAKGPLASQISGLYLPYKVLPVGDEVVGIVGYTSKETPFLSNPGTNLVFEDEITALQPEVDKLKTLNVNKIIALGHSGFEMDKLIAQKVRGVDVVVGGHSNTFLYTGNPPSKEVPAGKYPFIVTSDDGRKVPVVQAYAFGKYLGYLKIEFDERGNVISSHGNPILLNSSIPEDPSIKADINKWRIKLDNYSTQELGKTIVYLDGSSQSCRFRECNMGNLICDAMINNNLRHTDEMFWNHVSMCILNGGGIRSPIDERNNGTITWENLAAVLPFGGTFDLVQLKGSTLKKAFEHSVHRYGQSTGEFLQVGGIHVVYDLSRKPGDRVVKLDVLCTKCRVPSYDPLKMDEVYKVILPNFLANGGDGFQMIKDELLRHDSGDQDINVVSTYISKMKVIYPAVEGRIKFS
- assay remarks: flow cytometry titration on MDA-MB-231 cells (endogenous CD73), median of fluorescence
Reported values of EC50 (read off the curve) for individual entries

binder="antibody 3C12 (antibody, human IgG1, V domains shown, Produced as chimeric human IgG1 with heavy chain N297Q (Kabat EU numbering); RTVAAP)) VH: QIQLQQSGPELVKPGASVKVSCKASGYAFASYNMNWVKQSHGKSLDWIGYIDPYNGGSSYNLTFKGKATLTVDKSSTTAYMHLNSLTSEDSAVYYCARGYGNYKAWFAYWGQGTLVTVSA VL: DVVMTQTPKFLLVSAGDRVTITCKASQSVSNDVAWYQQKPGQSPKLLIYYASTRYTGVPDRFTGSGYGTDFTFTISTVQAEDLAVYFCQQDYSSLTFGAGTKLELKR" reported="~0.07 µg/mL"
binder="antibody 11E1 (antibody, human IgG1, V domains shown, Produced as chimeric human IgG1 with heavy chain N297Q (Kabat EU numbering); also called 1E11) VH: EIQLQQSGPELVKPGASVKVSCKASGYAFTSYNMYWVKQSHGKSLEWIGYIDPYNGGTSYNQKFKGKATLTVDKSSSTAYMHLNSLTSEDSAVYYCARGYGNYKAWFAYWGQGTLVTVSA VL: DAVMTQTPKFLLVSAGDRVTITCKASQSVTNDVAWYQQKPGQSPKLLIYYASNRYTGVPDRFTGSGYGTDFTFTISTVQAEDLAVYFCQQDYSSLTFGAGTKLELK" reported="~0.1 µg/mL"
binder="antibody 6E1 (antibody, human IgG1, V domains shown, Produced as chimeric human IgG1 with heavy chain N297Q (Kabat EU numbering)) VH: EFQLQQSGPELVKPGASVKVSCKASGYAFTSYNMYWVKQSHGKRLEWIGYIDPYNGGSSYNQKFKGKATLTVDKSSSTAYMHLNNLTSEDSAVYYCARGYNNYKAWFAYWGQGTLVTVSA VL: SIVMTQTPKFLLVSAGDRVTITCKASQSVTNDVAWYQQKPGQSPKLLIYYASNRYTGVPDRFTGSGYGTDFTFTISTMQAEDLAVYFCQQDYSSLTFGAGTKLELK" reported="~0.1 µg/mL"

Can you look up the measured EC50 (read off the curve) of antibody 8C7 (antibody, human IgG1, V domains shown, Produced as chimeric human IgG1 with heavy chain N297Q (Kabat EU numbering); RTVAAP)) VH: EVQLQQSGPELVKPGASVKVSCKASGYAFASYNMNWVKQSHGKSLDWIGYIDPYNGGSSYNLTFKGKATLTVDKSSTTAYMHLNSLTSEDSAVYYCARGYGNYKAWFAYWGQGTLVTVSA VL: SIVMTPTPKFLLVSAGDRVTITCKASQSVSNDVAWYQQKPGQSPKLLIYYASTRYTGVPDRFTGSGYGTDFTFTISTVQAEDLAVYFCQQDYSSLTFGAGTKLELKR for me?
~0.1 µg/mL
